Numbers sourced from PubChem BioAssay AID952.

Each entry below carries its reported inhibition.
experimental-target: Bcl-2-like protein 2 (Homo sapiens) (UniProt Q92843)
Sequence (Q92843 whole entry, looked up): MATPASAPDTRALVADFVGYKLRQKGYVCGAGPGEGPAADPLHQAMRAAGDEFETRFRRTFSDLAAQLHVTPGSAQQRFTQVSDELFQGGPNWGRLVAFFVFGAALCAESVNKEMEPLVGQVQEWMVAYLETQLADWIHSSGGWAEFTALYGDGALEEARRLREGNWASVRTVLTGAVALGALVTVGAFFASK
assay-text: inhibitors of Bim binding to Bcl-W, primary screen, biochemical, multiplexed, bead-based flow cytometry (AID 952);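 also: 0% = bound tracer without compound and 100% = peptide blocker; higher means less fluorescent Bim peptide bound to Bcl-W beads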
assay-context: Bim peptide-Bcl-W binding, at 10 µM, stronger effect = higher value
The campaign covered roughly 190,000 compounds. About 45 (0.02%) were called active. A selection follows.
property: inhibition

compound | obs-value
O=C(/C=C/c1ccc(N2CCOCC2)cc1)c1ccccc1 | -4% (inactive)
Cc1cnc(C(=O)OCC(=O)N2CCc3ccccc32)cn1 | 0% (inactive)
Cc1nnc(SCC(=O)N2CCOCC2)[nH]c1=O | -4% (inactive)
COC(=O)c1ccccc1NC(=O)C1CC(=O)N(c2ccc(OC)cc2)C1 (configuration not stated) | 0% (inactive)
COc1cc(/C=C/C2=CC(C)(C)NC(=S)N2)cc(OC)c1OC | 0% (inactive)
CC(C)N(Cc1ccccc1)C(=O)COC(=O)c1cnccn1 | -1% (inactive)
O=C(O)/C=C/C(=O)NNc1ccc([N+](=O)[O-])cc1 | 5% (inactive)
CCOC(=O)c1cnc2c(c(C)nn2CC)c1Cl | -1% (inactive)
CSCc1ccc(C(=O)Nc2cc(C)cc(C)c2)cc1 | -5% (inactive)
CCOc1ccc(N2C(=O)/C(=C/c3ccc(C)o3)N(C)C2=S)cc1 | 4% (inactive)
CC1CCN(C(=S)c2cccc([N+](=O)[O-])c2)CC1 | 0% (inactive)
NCCCC[C@@H]1NC(=O)[C@H](CCC(=O)O)NC(=O)c2cc([N+](=O)[O-])cc(I)c2NCC[C@@H](C(N)=O)NC1=O | 2% (inactive)
CCC(C)NC(=O)c1ccc(N2CCC3(CC2)OCCO3)c([N+](=O)[O-])c1 (configuration not stated) | -1% (inactive)
COC(=O)CCNC(=O)c1ccc2[nH]c(C)c(C)c2c1 | 1% (inactive)
COc1ccc(Cl)cc1NC(=O)CN(C)Cc1ccc(OC)c(OC)c1 | -4% (inactive)
O=C(NNC(=S)NCc1ccccc1)c1ccc(OC(F)F)cc1 | 1% (inactive)
COc1ccc(C(=O)CSc2nnc(NC(=O)C3CC(=O)N(c4cccc(OC)c4)C3)s2)cc1 (configuration not stated) | -2% (inactive)
Cn1c(=NC(=O)c2ccc3c(c2)OCCO3)sc2cc(S(C)(=O)=O)ccc21 | -1% (inactive)
CC(=O)c1cc(C#N)c(SCC(=O)Nc2nccs2)nc1C | -1% (inactive)
COc1ccc(C(C(=O)NC2CCCCC2)N(C(=O)CCl)c2ccccc2Cl)cc1 (configuration not stated) | 0% (inactive)
Cc1cc(C(=O)NNC(=S)Nc2ccccc2C)cs1 | 0% (inactive)
N#Cc1ccc(-c2nc3cc(C#N)c(C#N)cc3nc2-c2ccccc2)cc1C#N | 0% (inactive)
O=C(NNC(=O)c1ccccc1[N+](=O)[O-])Nc1ccccc1C(F)(F)F | 0% (inactive)
Cc1ccc(C2CC(c3cccc(NS(C)(=O)=O)c3)=NN2S(C)(=O)=O)cc1 (configuration not stated) | -1% (inactive)
CCOC(=O)c1[nH]c2c(c1-c1ccccc1)C(=O)CC(c1ccc(Cl)cc1)C2 (configuration not stated) | -3% (inactive)
OCC(O)CN(c1ccccc1)c1ccccc1 (configuration not stated) | -1% (inactive)
O=C(c1ccc(F)cc1)c1cn(Cc2ccc(F)cc2)c2cc3c(cc2c1=O)OCCO3 | -4% (inactive)
COc1cc(SC#N)ccc1N=Cc1c(C)[nH]n(-c2ccc(C)cc2)c1=O | 6% (inactive)
Cc1ccc(SC(C)C(=O)NCc2ccc(F)cc2)cc1 (configuration not stated) | 0% (inactive)
CNC(=O)/C(C#N)=C/c1c(F)cccc1Cl | -2% (inactive)
COc1ccc(N=C2SC(C(=O)Nc3ccc(F)cc3)CC(=O)N2C)cc1 (configuration not stated) | 0% (inactive)
CCN1CCN(CC(=O)c2cc(OC)c(OC)c(OC)c2)CC1 | -1% (inactive)
Brc1cc(/C=N/n2cnnc2)oc1Br | -2% (inactive)
C=CCn1c(SCc2cccc(F)c2)nc2cc(C(=O)N3CCC(C(N)=O)CC3)ccc2c1=O | -2% (inactive)
Cc1nnsc1C(=O)N/N=C/c1cccc(C(F)(F)F)c1 | -2% (inactive)
CSc1nc2ccccc2c(=O)n1Cc1ccc(F)cc1 | 0% (inactive)
O=C(NCC1COc2ccccc2O1)C1(c2ccccc2)CCCC1 (configuration not stated) | -1% (inactive)
Cc1[nH]c2ccccc2c1/C=N\NC(=O)Cn1nnc(-c2ccccc2)n1 | -6% (inactive)
O=C(c1ccncc1)N1CCN(c2ccc3ccccc3n2)CC1 | 0% (inactive)
CC(C)Oc1ccc(Cc2n[nH]c(=S)n2Cc2ccccc2)cc1Cl | -7% (inactive)
CN(CCC1CCOCC1)Cc1cn[nH]c1-c1ccc(-c2ccccc2)cc1 | -1% (inactive)
CCN(CCCNC(=O)CCn1c(=O)[nH]c2ccsc2c1=O)c1ccccc1 | 1% (inactive)
